experiment: NCI Yeast Anticancer Drug Screen. Data for the sgs1 mgt1 strain (AID 161);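 further: 0% = growth of cultures given vehicle only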; settings: S. cerevisiae sgs1 mgt1 strain, active compounds read high; at 50.0 µM unless noted
Compounds without any hit were thinned out: in the full panel of roughly 79,000, 15% have a hit.

MOLECULE	READOUT_UNIT	growth inhibition
OCC(O)Cc1ccccc1 (stereo unspecified)	%	3.2
[Cu+2].[NH-]CC(=O)NC(Cc1ccccc1)C(=O)O.[NH-]CC(=O)NC(Cc1ccccc1)C(=O)O (stereo unspecified)	%	10.6
Cc1cc(C)nc(/N=C(/N)Nc2ccc(S(=O)(=O)NC(=O)Nc3ccccc3)cc2)n1	%	5.8
O=P(O)(O)OP(=O)(O)O	%	-2.4
CC1CCC2(OC1)OC1CC3C4CCC5CC(O)CCC5(C)C4C(O)CC3(C)C1C2C (stereo unspecified)	%	43
CC(C)=C1C2C(C13C(=O)OC(C)(C)OC3=O)C2(C)C (stereo unspecified)	%	-11.6

* * *

test: NCI Yeast Anticancer Drug Screen. Data for the bub3 strain (AID 167); settings: S. cerevisiae bub3 mutant strain, active compounds read high; at 50.0 µM unless noted
The panel holds about 79,000 compounds, 15% with a hit somewhere; the sample as a whole holds those more often.

COMPOUND	READOUT_UNIT	growth inhibition
CCOC(=O)CSc1nc(-c2ccccc2)c(C#N)c(=O)[nH]1	%	2.6
COc1ccc(C(=O)CCC2(C)OCCO2)cc1OC	%	21.9
O=C1CSC(c2cccc([N+](=O)[O-])c2)N1c1nncs1 (centres undefined)	%	3.4
COc1cc(C(=O)NNC(=O)c2ccc(Cl)c(Cl)c2)cc(OC)c1OC	%	33.3
O=c1[nH]cnc2c1ccc1[nH]ncc12	%	-1.05
COC(=O)c1cc(-c2ccc(N)cc2)n2c(N)nnc2n1	%	2.45
O=c1n(-c2ccccc2)c(=O)n2n1C1C3C4C5C3C2C5(F)C41 (centres undefined)	%	6.75
N#CC1=C(N)OC(C2CC2)=C(C#N)C1c1ccco1 (centres undefined)	%	-24.8
COC(=O)CC(NC(=O)OCc1ccccc1)C(=O)NCC(=O)Oc1ccc([N+](=O)[O-])cc1 (centres undefined)	%	5.75
N#CNC(N)=NCCO	%	-28.5
O=C1c2ccccc2CC(c2ccccc2)N1c1ccccc1 (centres undefined)	%	3.55
COc1ccc(/C=C2\CNC/C(=C\c3ccc(OC)cc3)C2=O)cc1	%	15.3
O=c1oc2ccccc2cc1O	%	-18.3
O=S1(=O)C2C=CC1C(Br)C(Br)CC2 (centres undefined)	%	-0.15
O=C(O)C(=O)c1c(O)[nH]c2ccccc12	%	-8
CC(C)C(=O)OC1(CC2CCCCN2C)CCCCC1 (centres undefined)	%	5.3
Cn1c(O)c(N=NC(=O)Cc2c[nH]c3ccccc23)c2ccccc21	%	-2.2
Clc1ccc(/C=C/c2nc(Cl)c(-c3ccc(Cl)cc3)c(Cl)n2)cc1	%	-23.8
CC(C)N(C(=O)c1ccc(C(=O)N(c2ccccc2)C(C)C)cc1)c1ccccc1	%	-3.45

* * *

experiment: NCI Yeast Anticancer Drug Screen. Data for the bub3 strain (AID 167); settings: S. cerevisiae bub3 mutant strain, active compounds read high; at 50.0 µM unless noted
About 79,000 compounds went through this panel and 15% of them were active in at least one assay; those are over-represented in the sample as a whole.
Consider the following compounds and their measured growth inhibition readings.

COMPOUND	growth inhibition (%)
CC(CO)Cc1ccccc1 (configuration not stated)	-3.7
COc1ccccc1/C=C1\C(=O)N(C(=O)c2ccc(NC(C)=O)cc2)N=C1C	-23.9
O=C(NCc1ccc(Cl)cc1)NC1CCCCC1	20.9
CN(C)CCN1CC2Cc3ccccc3C1c1ccccc12 (configuration not stated)	43.4
Cc1ccc(C(N)=O)cc1N=NN(C)C	-16.6
CC1=CCC(C(C)C)C2CC(C)(O)CCC12 (configuration not stated)	-4.35
COc1ccc(/C=N/NC(=O)c2ccccc2)c(OC)c1	28.2
NC(=O)C1(N2CCCC2)CCN(Cc2ccccc2)CC1	-10.6
OCC1OC(n2cnc3c2NC=NC[C@H]3O)C(O)C1O (some centres not stated)	6.25
CCN1CCNC(c2ccccc2)C1(C)C (configuration not stated)	-5.95
CS(=O)(=O)OCC(Br)C(Br)COS(C)(=O)=O (configuration not stated)	-5.3
COc1ccc(OC)c(/C=N\NC(=O)N/N=C/c2cc(OC)ccc2OC)c1	22.8
O=S1(=O)CS/C(=N\C(=S)N(c2ccccc2)c2ccccc2)N1c1ccccc1	4.75
S=C1NCN2CCN(CC2)CNC(=S)C(=S)NCN2CCN(CC2)CNC1=S	48.9
OCCCCCCCl	-3.05
CCC(C)C(O)C(C)C (configuration not stated)	-4.6
NC(=O)c1c([N+](=O)[O-])ncn1C1OC(CO)C(O)C1O (configuration not stated)	5.8
Cc1ccc(C(CCC#N)OC(C)C)cc1 (configuration not stated)	3.15
O=C(Nc1ccc2c(c1)Cc1ccccc1-2)c1cccc2ccccc12	12.2
O=C(O)CC(CS(=O)O)C(=O)O (configuration not stated)	1.15
COCCOC(=O)OCCOC	-12.8
CC1C(=O)C(c2cccs2)(C2CCCCC2)CC[N+]1(C)C (configuration not stated)	1.25
CC(=O)ONC(C(=O)C(C)(C)C)C(=O)C(C)(C)C	-2.7
C1C2OC2CC2OC12 (configuration not stated)	-1.05
CC(C)COC(=O)C(CC(C)C)NC(=O)C(C)O (configuration not stated)	-14.7
O=C1OCc2ccccc21	-6.05
Cc1cc(OC(=O)c2c(-c3c(Cl)cccc3Cl)noc2C)n(-c2ccc(NC(=O)c3c(-c4c(Cl)cccc4Cl)noc3C)cc2)n1	28.1

* * *

experiment: NCI Yeast Anticancer Drug Screen. Data for the rad50 strain (AID 155);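 further: 0% = growth of vehicle-only cultures of the same strain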; details: S. cerevisiae rad50 strain growth inhibition, active compounds read high; at 50.0 µM unless noted
The panel holds about 79,000 compounds, 15% with a hit somewhere; the sample as a whole holds those more often.
Catalogue of growth inhibition values

COMPOUND	READOUT_UNIT	growth inhibition
CC(=O)N(C(C)=O)N1C(=O)CSC1=S	%	-11.1
O=C(O)C1CC(=O)N(Cc2ccccc2)C1 (stereo not given)	%	32.8
CCN(CC)C(=O)c1cc(OC)c(C(=O)N(CC)CC)cc1OC	%	-21.9
Cc1ccc(S(=O)(=O)OC2CCSCC2)cc1	%	-5.25
CCCCCCCCCCCCCCCCCCCCCCCCC(=O)O	%	-18.6
Cc1ccccc1C(=O)C[n+]1ccccc1C	%	-11.8
CC(C)N(C(=O)C12C3C4C1C1C2C3C41C(=O)N(C(C)C)C(C)C)C(C)C (stereo not given)	%	-1.85
CCCCC(CC)CCC(C)O (stereo not given)	%	-6.75
Cc1c(CC#N)cc(C)c2c3c([nH]c12)-c1ccccc1CC3	%	35.5
COc1ccc(/C=N/NC(=S)NN)cc1	%	-6.6
COc1ccc(CCNC(=O)[C@H]2CCCC[C@@H]2CCO)cc1OC	%	15.5
COc1ccc(C2(O)OCC(COc3cc(C)c(Cl)c(C)c3)O2)cc1OC (stereo not given)	%	-10
CC12CCC(=O)C=C1CCCC2=O (stereo not given)	%	-7.6
CCC1(C)OCCO1	%	0.5
CC(C(=O)O)c1ccc(-c2ccccc2)cc1 (stereo not given)	%	10.6

* * *

Overview of reported growth inhibition across a group of compounds:
assay: NCI Yeast Anticancer Drug Screen. Data for the cln2 rad14 strain (AID 165);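 further: 0% = growth equal to vehicle treated cultures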; conditions: S. cerevisiae cln2 rad14 strain, active compounds read high; at 50.0 µM unless noted
About 79,000 compounds went through this panel and 15% of them were active in at least one assay; those are over-represented in the sample as a whole.
ENDPOINT_NAME: growth inhibition (%)

COMPOUND	READOUT_UNIT	MEASUREMENT
CC1CC(OCCO)CC(C)(C)C1 (stereo not drawn)	%	-8.8
CSC(=N)N	%	-46
CC(=O)NNC(=O)C(N)Cc1ccc(O)cc1 (stereo not drawn)	%	12.2
CN(C)c1ccc(C(c2ccc(N(C)C)cc2)c2ccc([N+](=O)[O-])cc2)cc1	%	8.3
CC[N+](CC)(CC)Cc1cn(S(=O)(=O)c2ccccc2)c2ccccc12	%	-64.7
COc1ccc(CCn2c(=O)c3ccccc3n(C)c2=O)cc1	%	34.2
CCOC(=O)c1c[nH]c2c(Cl)c(Cl)ccc2c1=O	%	12.9
CC1(C)COC(c2ccc3c(c2)OCO3)N1 (stereo not drawn)	%	-19.6

* * *

experiment: NCI Yeast Anticancer Drug Screen. Data for the cln2 rad14 strain (AID 165);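 further: 0% = growth equal to vehicle treated cultures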; conditions: S. cerevisiae cln2 rad14 strain, active compounds read high; at 50.0 µM unless noted
About 79,000 compounds went through this panel and 15% of them were active in at least one assay; those are over-represented in the sample as a whole.

COMPOUND	READOUT_UNIT	growth inhibition
O=C1CSC(c2ccc(O)cc2)N1c1nncs1 (stereo unspecified)	%	-0.55
O=c1c(O)c(-c2cc(O)c(O)c(O)c2)oc2cc(O)cc(O)c12	%	1.1
C[N+]1(Cc2csc(-c3ccc(Cl)cc3)n2)CCCC1	%	9.75
CC(=O)Nc1ccccc1C(C#N)Cc1ccccc1 (stereo unspecified)	%	-32.4
NC(=O)CCCO	%	6.6
CC(C)CCn1c(=O)c2c(ncn2C)n(C)c1=O	%	10.2
